- test details: Genotoxicity in Salmonella typhimurium TA1535 harboring pSK1002 assessed as survival at 0.008 mg/ml in presence of Sprague-Dawley rat liver S9 fraction metabolic activation by SOS/umu assay relative to control
- Type: toxicity, subcellular
- particulars: salmonella enterica subsp. enterica serovar typhimurium, read-out: Survival
parameter measured: viability at 0.008 mg/ml (%)
Your answer should be a plain number; it is taken to be in %.

Summary for this compound, `O=C(CCN1CCN(c2ccc(C(F)(F)F)cc2)CC1)c1ccc(O)cc1` : viability at 0.008 mg/ml is 104

Note to self: viability at 0.008 mg/ml recorded for `O=C(CCN1CCN(c2ccc(Cl)cc2)CC1)c1ccc(O)cc1` was 109

The reported measurements were obtained from ChEMBL document CHEMBL4402517.
